testName: chemical genetic growth profiling, strain panel (AID 1159580);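 further: tested at 20 µM; growth read once vehicle control cultures reached saturation at 30 °C; 1 = growth at the plate median or of vehicle wells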
conditionLabel: S. cerevisiae deletion strains, growth OD, locus YGR052W, strain FMP48
Hit rate of the full screen: of about 5,500 compounds, about 2,000 (36%) were called active. Inconclusive results (about 18%) are left out. No stated cut-off is given here; in the data, active means normalized growth mostly below about 0.91 (no sharp cut-off); inconclusive means no clear call, values can overlap the other calls; inactive means mostly above about 0.92. Some of the results follow.
Classes used: active, inactive

{"compound": "O=C(Nc1cccc(C(F)(F)F)c1)Oc1ccc(F)cc1Cl", "classAssignment": "inactive"}
{"compound": "O=C(CO/N=C\\c1ccc(Cl)cc1Cl)NNC(=S)Nc1cc(Cl)ccc1Cl", "classAssignment": "inactive"}
{"compound": "CCOC(=O)c1c(N=Cc2cc(Br)c(Br)cc2O)sc2c1CCCC2", "classAssignment": "active"}

----------
# normalized growth listing for each entry below
testName: chemical genetic growth profiling, strain panel (AID 1159580);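 further: tested at 20 µM; growth read once vehicle control cultures reached saturation at 30 °C; 1 = growth at the plate median or of vehicle wells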
conditionLabel: S. cerevisiae deletion strains, growth OD, locus YKL085W, strain MDH1 (second series), stronger effect = lower value
Among all 5,500 compounds or so, about 2,000 (36%) were called active. Another 18% or so got no clear call; they are omitted. Some of the results follow.
recordedEndpoint: normalized growth

{"molecule": "COc1c(C(=O)O)ccc2c1CCC(C)(C)O2", "experimentalValue": 0.955}
{"molecule": "O=C(O)c1cc(=O)c(O)c2c(O)c(O)ccc2c1", "experimentalValue": 1.02}
{"molecule": "CCOP(=S)(OCC)Oc1ccc2c(C)c(Cl)c(=O)oc2c1", "experimentalValue": 0.982}
{"molecule": "CC1=C(/C=C/C(C)=C/C=C/C(C)=C/C(=O)O)C(C)(C)CCC1", "experimentalValue": 1.02}
{"molecule": "CC1=C(/C=C/C(C)=C/C=C/C(C)=C/CO)C(C)(C)CCC1", "experimentalValue": 0.972}
{"molecule": "Nc1c(Br)cc(Br)cc1CNC1CCC(O)CC1 (configuration not stated)", "experimentalValue": 1}
{"molecule": "CN(Cc1cc(Br)cc(Br)c1N)C1CCCCC1", "experimentalValue": 1.01}

----------
testName: chemical genetic growth profiling, strain panel (AID 1159580);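 further: tested at 20 µM; growth read once vehicle control cultures reached saturation at 30 °C; 1 = growth at the plate median or of vehicle wells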
conditionLabel: S. cerevisiae deletion strains, growth OD, locus YNL153C, strain GIM3
In all, about 5,500 compounds went through this assay and about 2,000 (36%) were called active. Another 18% or so got no clear call; they are omitted. Rule as the data show it: active = normalized growth mostly below about 0.91 (no sharp cut-off); inconclusive = no clear call, values can overlap the other calls; inactive = mostly above about 0.92. Some of the results follow.
Classes used: active, inactive

{"molecule": "COCCCCC(=NOCCN)c1ccc(C(F)(F)F)cc1", "classAssignment": "inactive"}
{"molecule": "O=C(Nc1ccc(Cl)cc1Cl)c1cnccn1", "classAssignment": "inactive"}
{"molecule": "CC(=O)OCC(=O)[C@@]12OC(C)(C)O[C@@H]1CC1C3C[C@H](F)C4=CC(=O)C=C[C@]4(C)[C@@]3(F)[C@@H](O)C[C@@]12C (stereo not given in full)", "classAssignment": "inactive"}
{"molecule": "NC(=O)c1cnccn1", "classAssignment": "inactive"}
{"molecule": "Fc1cccc(Cl)c1Cn1nnc(N2CCCCC2)n1", "classAssignment": "inactive"}
{"molecule": "O=C(CCN1CCOCC1)c1ccc2c(c1)OCCO2", "classAssignment": "inactive"}
{"molecule": "CC12CCC3C(CC=C4CC(O)CCC43C)C1CCC2=O (stereo not given)", "classAssignment": "inactive"}
{"molecule": "Cc1cc(/C=N/NC(N)=S)c2c(C)ccc(C(C)C)cc1-2", "classAssignment": "inactive"}
{"molecule": "CC(C)CC(NP(=O)(O)O[C@@H]1O[C@@H](C)[C@H](O)[C@@H](O)[C@H]1O)C(=O)NC(Cc1c[nH]c2ccccc12)C(=O)O (stereo not given in full)", "classAssignment": "inactive"}
{"molecule": "COc1cc(C(=O)O)c(O)c2c1OCO2", "classAssignment": "inactive"}
{"molecule": "CCCN1CC[C@@H]2c3cc(O)ccc3CC[C@@H]21", "classAssignment": "inactive"}
{"molecule": "CCNS(=O)(=O)c1cc(Cl)sc1Cl", "classAssignment": "inactive"}
{"molecule": "O=C1CC(c2ccccc2)=NO1", "classAssignment": "active"}
{"molecule": "CN1c2ccccc2C(=O)NC1c1cc(Br)cs1 (stereo not given)", "classAssignment": "inactive"}
{"molecule": "Nc1c(Br)cc(Br)cc1CNC1CCC(O)CC1 (stereo not given)", "classAssignment": "inactive"}
{"molecule": "CC1CN(S(=O)(=O)c2cccc3cnccc23)CCN1 (stereo not given)", "classAssignment": "inactive"}
{"molecule": "Nc1ccc(S(=O)(=O)Nc2nccs2)cc1", "classAssignment": "inactive"}
{"molecule": "N#Cc1c(-c2ccccc2)no[n+]1[O-]", "classAssignment": "active"}
{"molecule": "CCOC(=O)c1c(C)csc1N", "classAssignment": "inactive"}
{"molecule": "CCCSP(=O)(OCC)SCCC", "classAssignment": "inactive"}
{"molecule": "O=S(=O)(c1cc(Br)c(Br)s1)N1CCCCC1", "classAssignment": "inactive"}
{"molecule": "N.N.N.N.N.N.N.N.N.N.N.N.N.N.O.O.[Ru+4].[Ru+5].[Ru+5]", "classAssignment": "active"}
{"molecule": "CCCN1CCO[C@@H]2c3cc(O)ccc3OC[C@H]21", "classAssignment": "inactive"}
{"molecule": "C=CCN1CC[C@]23c4c5ccc(O)c4O[C@H]2/C(=N\\NC(=O)c2ccccc2)CC[C@@]3(O)[C@H]1C5", "classAssignment": "inactive"}
{"molecule": "ON(Cc1c(F)cccc1Cl)Cc1c(F)cccc1Cl", "classAssignment": "inactive"}

Origin of the recorded values: PubChem BioAssay AID1159580
